Every entry's value here was drawn from patent US12528761B2.

Target: TRα (Homo sapiens, UniProt P10827)
Construct: expressed in transfected cells; host or cells: HEK293
Sequence (P10827 1-410 isoform P10827-2): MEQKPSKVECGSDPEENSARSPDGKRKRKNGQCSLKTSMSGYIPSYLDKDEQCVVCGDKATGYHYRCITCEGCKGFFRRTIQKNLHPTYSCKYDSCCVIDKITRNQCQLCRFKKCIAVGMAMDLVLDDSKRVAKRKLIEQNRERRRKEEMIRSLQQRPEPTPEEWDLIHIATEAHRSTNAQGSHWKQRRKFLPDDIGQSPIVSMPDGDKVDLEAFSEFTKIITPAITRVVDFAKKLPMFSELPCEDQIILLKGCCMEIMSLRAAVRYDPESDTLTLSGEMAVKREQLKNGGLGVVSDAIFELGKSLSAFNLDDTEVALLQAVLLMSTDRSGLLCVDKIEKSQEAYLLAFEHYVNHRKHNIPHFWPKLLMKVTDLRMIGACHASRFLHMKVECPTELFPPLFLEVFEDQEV
Test: TR reporter-gene assay (Gal4 DBD hybrid, luciferase), TRα
Assay type: cell-based
Conditions: HEK293-derived reporter cells, 24 hr treatment; read-out: TRα EC50
Reported EC50 by item:

Sample records with EC50:
>>> print(df.to_string())
                                   compound  quantity_measured        result
0  C/C(=C\c1cc(Cl)c(Cc2ccc(O)c(C(C)C)c2)c(C)c1F)C(=O)O               EC50  10 to 100 nM
1  CC(C)c1c(O)ccc(Cc2c(Cl)cc(NCC(=O)O)cc2Cl)c1F               EC50  10 to 100 nM
2  CC(c1ccc(F)cc1)c1c(O)ccc(Cc2c(Cl)cc(CC(=O)O)cc2Cl)c1F (stereo not shown)               EC50  10 to 100 nM
3  CONC(=O)CCc1cc(Cl)c(Cc2ccc(O)c(C(C)C)c2F)c(Cl)c1               EC50  10 to 100 nM
4  O=C(O)CCc1cc(Cl)c(Cc2ccc(O)c(-c3cc(OC(F)F)ccc3F)c2F)c(Cl)c1               EC50  10 to 100 nM

Let's switch to this compound now.
For the compound CC(C)c1c(O)ccc(Cc2c(Cl)cc(C(=O)O)cc2Cl)c1F , what EC50 is on record?
> 1000 nM
